# Assay System: Mitogen-activated protein kinase kinase kinase 14 (Homo sapiens, UniProt Q99558)
# Sequence (Q99558 whole entry, looked up, the tested form may be a part): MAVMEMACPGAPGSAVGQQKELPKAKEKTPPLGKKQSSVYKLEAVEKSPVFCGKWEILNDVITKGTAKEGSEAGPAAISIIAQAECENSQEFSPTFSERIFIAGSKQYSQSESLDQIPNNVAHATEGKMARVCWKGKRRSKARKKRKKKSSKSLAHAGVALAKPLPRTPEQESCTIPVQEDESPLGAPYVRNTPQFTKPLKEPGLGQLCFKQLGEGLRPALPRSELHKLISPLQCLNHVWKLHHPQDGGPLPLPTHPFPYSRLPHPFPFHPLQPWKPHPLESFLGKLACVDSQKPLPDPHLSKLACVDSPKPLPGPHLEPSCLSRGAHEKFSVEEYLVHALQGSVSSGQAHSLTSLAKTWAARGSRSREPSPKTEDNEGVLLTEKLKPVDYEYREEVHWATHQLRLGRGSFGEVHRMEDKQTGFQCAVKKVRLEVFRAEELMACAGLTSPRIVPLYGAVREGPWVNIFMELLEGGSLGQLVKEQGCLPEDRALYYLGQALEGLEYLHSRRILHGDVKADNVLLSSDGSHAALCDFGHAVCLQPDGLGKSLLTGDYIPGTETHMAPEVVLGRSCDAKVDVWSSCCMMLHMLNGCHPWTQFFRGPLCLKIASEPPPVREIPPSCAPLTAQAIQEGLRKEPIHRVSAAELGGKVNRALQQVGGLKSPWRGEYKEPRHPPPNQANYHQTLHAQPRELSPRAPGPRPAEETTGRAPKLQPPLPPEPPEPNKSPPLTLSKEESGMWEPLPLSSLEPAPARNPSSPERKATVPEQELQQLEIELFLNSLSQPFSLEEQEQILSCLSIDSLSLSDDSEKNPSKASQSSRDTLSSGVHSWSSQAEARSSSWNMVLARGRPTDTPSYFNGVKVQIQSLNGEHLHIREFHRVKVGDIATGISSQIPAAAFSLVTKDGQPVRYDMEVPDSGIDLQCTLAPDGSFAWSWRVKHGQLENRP
# Protocol Text: Inhibition of human recombinant GST-fused NIK expressed in Sf9 cells at 50 uM after 60 mins by radiometric protein kinase assay
Listing of recorded inhibition by entry.
Property: inhibition (%)

[[record]]
molecule = "CC(NC(=O)Cn1c(=O)[nH]c(=O)c2ccccc21)c1cccs1 (centres undefined)"
qualifying_sign = "<"
observed_result = 15

[[record]]
molecule = "O=C1NC(=O)c2ccccc2/C1=C\\c1cccs1"
qualifying_sign = "="
observed_result = 25

[[record]]
molecule = "CN(C)c1ccc(CNC(=O)Cn2c(=O)[nH]c(=O)c3ccccc32)cc1"
qualifying_sign = "<"
observed_result = 15

[[record]]
molecule = "CC1=CC(=O)c2c(O)cccc2C1=O"
qualifying_sign = "="
observed_result = 60

[[record]]
molecule = "CCOC(=O)N1CCC(NC(=O)Cn2c(=O)[nH]c(=O)c3ccccc32)CC1"
qualifying_sign = "<"
observed_result = 15

[[record]]
molecule = "O=C1CC2CC(=O)NC(=O)C2C(=O)N1 (centres undefined)"
qualifying_sign = "="
observed_result = 53

[[record]]
molecule = "O=C1Cc2ccccc2C(=O)N1"
qualifying_sign = "="
observed_result = 60

[[record]]
molecule = "O=C(Cn1c(=O)[nH]c(=O)c2ccccc21)NCc1ccccn1"
qualifying_sign = "<"
observed_result = 15

[[record]]
molecule = "CCO/C=C1/C(=O)NC(=O)c2ccccc21"
qualifying_sign = "="
observed_result = 44

